Molecular target: Histamine H2 receptor (Cavia porcellus)
Assay: Histamine H2 receptor antagonist activity (chronotropic response to histamine) in guinea pig right atrium
Format: functional, tissue-based
Settings: Cardiac atrium
Dear colleague, classification is by ED50, with ranges listed here: low: < 400 nM; mid: ≥ 400 nM and < 700 nM; high: ≥ 700 nM

Past entries and their recorded results:
[[record]]
compound = "CCS(=O)(=O)NC(=N)CCCCc1csc(N=C(N)N)n1"
qualitative_label = "mid"

[[record]]
compound = "C/N=C(\\N)Nc1nc(CSCCC(=N)NS(N)(=O)=O)cs1"
qualitative_label = "mid"

[[record]]
compound = "CN/C(=N\\CCSCc1nc[nH]c1C)NC#N [CIMETIDINE]"
qualitative_label = "high"

[[record]]
compound = "CN(C)Nc1nc(CSCCC(=N)NS(N)(=O)=O)cs1"
qualitative_label = "high"

[[record]]
compound = "N=C(N)Nc1nc(CCCCC(=N)NS(N)(=O)=O)cs1"
qualitative_label = "low"

[[record]]
compound = "NC(N)=Nc1nc(CSCC/C(N)=N/S(N)(=O)=O)cs1 [FAMOTIDINE]"
qualitative_label = "low"

[[record]]
compound = "Cc1[nH]cnc1CSCCC(=N)NS(N)(=O)=O"
qualitative_label = "high"

[[record]]
compound = "N=C(N)Nc1nc(CCCCC(=N)NS(=O)(=O)NC2CCCCC2)cs1"
qualitative_label = "high"

[[record]]
compound = "N=C(N)Nc1nc(CSCCC(=N)NS(=O)(=O)c2ccc(N)cc2)cs1"
qualitative_label = "mid"

[[record]]
compound = "N=C(N)Nc1nc(C[S+]([O-])CCC(=N)NS(N)(=O)=O)cs1 (stereo not drawn)"
qualitative_label = "high"


Exercise: read the entry CS(=O)(=O)NC(=N)CCSCc1csc(N=C(N)N)n1 and state which class it falls under.
mid

Exercise: read the entry N=C(N)Nc1nc(CCCCC(=N)NS(=O)(=O)c2ccc(N)cc2)cs1 and state which class it falls under.
low
